In this section we review reported growth values for a set of molecules.
System: OVCAR-8 ovarian
Method notes: NCI-60 one-dose screen, 48 h (100 = growth as untreated, 0 = no growth, -100 = all killed)
Assay context: 10 µM unless noted
Compounds without any hit were thinned out: in the full panel of roughly 83,000, 20% have a hit. Activity calls are given as the source filed them. Rule for the calls: active = growth percent below 10; inactive = the rest.

Molecule: CC(=O)N1N=C(c2ccc(Nc3nc(Nc4ccc(F)cc4)nc(Nc4ccc(F)cc4)n3)cc2)CC1c1ccc(N(C)C)cc1 (centres undefined)
growth: 27.6% (inactive)

Quick one: growth of COc1cc2ncnc(Nc3ccc(F)c(Cl)c3)c2cc1OCC(=O)N1CCOCC1 ?
87.2% (inactive)

Quick one: growth of Oc1c(I)cc(I)cc1CN(Cc1ccccn1)Cc1ccccn1 ?
10.1% (inactive)

Quick one: growth of Cc1nc2ccccc2c(/C=C/c2ccc(F)cc2)c1C(=O)/C=C/c1ccccc1 ?
2.09% (active)

Quick one: growth of N#Cc1c(-c2ccccc2)nc2c(c(-c3ccc(Cl)cc3)nn2-c2ccccc2)c1-c1ccc([N+](=O)[O-])cc1 ?
98.5% (inactive)

Quick one: growth of COC(=O)[C@@]1(C)CC[C@]2(C)CC[C@]3(C)C4=CC=C5C(=CC(=O)C(O)=C5C)[C@]4(C)[C@@H](O)C[C@@]3(C)[C@@H]2C1 ?
4.47% (active)

Quick one: growth of COC(=O)c1nc(-c2ccccc2)oc1S(=O)(=O)N1CCCC(C)C1 (centres undefined) ?
81.9% (inactive)

Quick one: growth of CS(=O)/C(C#N)=C\C=C\c1cccc(Cl)c1 (centres undefined) ?
26.3% (inactive)

Quick one: growth of CCCCCCCCCCOC(=O)c1nn(C(C)=O)c2cc(C)c(C)cc12 ?
98.5% (inactive)

Quick one: growth of C=C(C)[C@@H]1CC[C@]2(C(=O)N3CCN(C)CC3)CC[C@]3(C)[C@H](CC[C@@H]4[C@@](C)(CCC(=O)O)[C@H](C(=C)C)CC[C@]43C)[C@@H]12 ?
88.9% (inactive)
